systemUnderTest: human CD3 ed (human, UniProt P07766 23-126; P04234 22-105, limits assumed)
Sequence (P07766 23-126 limits assumed, chain 1 of 2): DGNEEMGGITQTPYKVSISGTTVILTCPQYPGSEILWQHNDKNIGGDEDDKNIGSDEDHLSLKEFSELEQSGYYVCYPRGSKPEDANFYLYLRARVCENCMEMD
Sequence (P04234 22-105 limits assumed, chain 2 of 2): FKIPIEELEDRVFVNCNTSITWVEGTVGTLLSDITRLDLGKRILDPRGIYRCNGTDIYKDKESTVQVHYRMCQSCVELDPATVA
measurementNotes: SPR Biacore T200, IgG captured on protein A, 25 C;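 further: antigens diluted in ACES running buffer at pH 7.4 were flowed over antibodies held on a CM3 chip bearing amine-coupled protein A, with buffer alone serving as blank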
// kon lookup, one value per entry
Field format: number, assumed M⁻¹ s⁻¹, no unit text.

Below are worked cases with known answers.
{"binder": "dBBDu193/L127 (antibody, V domains shown, IgG format; constant regions not specified; also called dBBDu_193 dBBDu.L127) VH: QVQLVESGGGLVQPGRSLRLSCAASGFTFSNAWMHWVRQAPGKGLEWVAQIKDRSNQYATYYAPSVKGRFTISRDDSKNSIYLQMNSLKTEDTAVYYCHYVHYSAASTLLPSFGVDAWGQGTTVTVSS VL: DIVMTQSPLSLPVTPGEPASISCRASEELLHINRHIFLHWYQQKPGQAPRLLIYKVYNRFTGVPDRFSGSGSGTDFTLKISRVEAEDVGVYYCAQGTSVPFTFGQGTKLEIK", "unitAbbreviation": "M⁻¹ s⁻¹", "kon": 12600}
{"binder": "dBBDu186/L108 (antibody, V domains shown, IgG format; constant regions not specified) VH: QVQLVESGGGLVQPGRSLRLSCAASGFTFSNAWMHWVRQAPGKGLEWVAQIKDRSNQYATYYAPSVKGRFTISRDDSKNSIYLQMNSLKTEDTAVYYCHYVHYAQASTVLPAFGVDAWGQGTTVTVSS VL: DIVMTQSPLSLPVTPGEPASISCRTSEELLHINRFTFLHWYQQKPGQAPRLLIYKVSNRFMGVPDRFSGSGSGTDFTLKISRVEAEDVGVYYCAQGSAVPFTFGQGTKLEIK", "unitAbbreviation": "M⁻¹ s⁻¹", "kon": 13600}

// below: kon requested for another binder
Query string: GET /values?readout=kon&item= dBBDu186/L096 (antibody, V domains shown, IgG format; constant regions not specified) VH: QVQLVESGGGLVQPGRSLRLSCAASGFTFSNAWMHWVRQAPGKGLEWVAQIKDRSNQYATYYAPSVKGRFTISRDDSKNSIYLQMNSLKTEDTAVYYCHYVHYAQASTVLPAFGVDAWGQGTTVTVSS VL: DIVMTQSPLSLPVTPGEPASISCRTSQELVHINRYIFLHWYQQKPGQAPRLLIYKVYNRFQGVPDRFSGSGSGTDFTLKISRVEAEDVGVYYCAQGTSVPYTFGQGTKLEIK
Result string: 11200

All values here come from patent US20210388087A1.
